System: Fibroblasts (BJ)
experiment_notes: Safety, MTT test in fibroblasts
Assay type: cell-based
condition_notes: 100 µM; 48 hours
measured_metric: Fibroblasts (BJ) MTT

INSERT INTO assay_data (query_smiles, measured_metric, result) VALUES
  ('O=C(/C=C/c1ccc(Cl)cc1)NCCCO', 'Fibroblasts (BJ) MTT', '100.54±5.01 % of solvent control'),
  ('Cc1ccc(/C=C/C(=O)NCCCCCO)cc1', 'Fibroblasts (BJ) MTT', '102.12±2.71 % of solvent control'),
  ('O=C(/C=C/c1ccccc1)NCCCCCO', 'Fibroblasts (BJ) MTT', '99.41±5.96 % of solvent control'),
  ('O=C(/C=C/c1ccc(Cl)cc1)NCCCCCO', 'Fibroblasts (BJ) MTT', '99.88±5.25 % of solvent control'),
  ('O=C(/C=C/c1ccc(Cl)cc1)NCCO', 'Fibroblasts (BJ) MTT', '101.82±3.99 % of solvent control');

====

Test system: S. typhimurium TA1537
experiment_notes: Ames microplate test, TA1537;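 also: reference level is the mean solvent-control yellow wells plus SD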
Assay type: cell-based, Salmonella typhimurium
condition_notes: 0.5 mM, +S9
measured_metric: Increase in the number of yellow wells compared to the reference level

INSERT INTO assay_data (molecule, experimental_target, numeric_readout) VALUES
  ('O=C(/C=C/c1ccc(Cl)cc1)NCCCCCO [Compound A-111]', 'S. typhimurium TA1537', 0.27),
  ('O=C(/C=C/c1ccccc1)NCCCCCO [Compound A-133]', 'S. typhimurium TA1537', 0.18),
  ('O=C(/C=C/c1ccccc1)NCCCCCCO [H-425/21]', 'S. typhimurium TA1537', 1.33),
  ('CCC(O)CNC(=O)/C=C/c1ccc(Cl)cc1 (stereo not shown) [Compound A-67]', 'S. typhimurium TA1537', 1.00);

====

System: E. coli WP2
experiment_notes: Ames microplate test, E. coli WP2;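 also: bacteria treated 90 min at 37 °C in 24-well plates, then indicator medium dispensed to 384-well plates and incubated 48 h before yellow-well counting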
condition_notes: 1.0 mM, +S9
measured_metric: Increase in the number of yellow wells compared to the reference level

INSERT INTO results (compound, numeric_readout) VALUES
  ('O=C(/C=C/c1ccccc1)NCCCCCO [Compound A-133]', 0.44),
  ('O=C(/C=C/c1ccc(Cl)cc1)NCCCCCO [Compound A-111]', 0.71),
  ('O=C(/C=C/c1ccccc1)NCCCCCCO [H-425/21]', 0.83),
  ('CCC(O)CNC(=O)/C=C/c1ccc(Cl)cc1 (stereo not shown) [Compound A-67]', 0.42);

====

System: neuroblastoma SH-SY5Y
experiment_notes: Safety, LDH test in SH-SY5Y
Format: cell-based
condition_notes: 250 µM; 48 hours; positive control Triton X-100
measured_metric: Neuroblastoma SH-SYSY LDH

INSERT INTO results (query_smiles, result) VALUES
  ('O=C(/C=C/c1ccc(Cl)cc1)NCCCCCO', '6.77 percentage of positive control'),
  ('O=C(/C=C/c1ccc(Cl)cc1)NCCO', '8.87 percentage of positive control'),
  ('O=C(/C=C/c1ccccc1)NCCCCCO', '13.32 percentage of positive control'),
  ('O=C(/C=C/c1ccc(Cl)cc1)NCCCO', '13.41 percentage of positive control'),
  ('Cc1ccc(/C=C/C(=O)NCCCCCO)cc1', '10.55 percentage of positive control');

====

Tested on: S. typhimurium TA1537
experiment_notes: Ames microplate test, TA1537;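 also: reference level is the mean solvent-control yellow wells plus SD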
Type: cell-based, Salmonella typhimurium
condition_notes: 2.0 mM, without S9
Reported Increase in the number of yellow wells compared to the reference level values follow for various molecules
measured_metric: Increase in the number of yellow wells compared to the reference level

INSERT INTO assay_data (molecule, numeric_readout) VALUES
  ('CCC(O)CNC(=O)/C=C/c1ccc(Cl)cc1 (stereo not drawn)', 0.82),
  ('O=C(/C=C/c1ccccc1)NCCCCCCO', 0.82),
  ('O=C(/C=C/c1ccc(Cl)cc1)NCCCCCO', 0.54),
  ('O=C(/C=C/c1ccccc1)NCCCCCO', 0.54),
  ('Cc1ccc(/C=C/C(=O)NCCCCCO)cc1', 0.00),
  ('CC(CO)NC(=O)/C=C/c1ccc(Cl)cc1 (stereo not drawn)', 1.00);

====

Reported Keratinocytes (HaCaT) LDH values follow for various molecules
System: Keratinocytes (HaCaT)
experiment_notes: Safety, LDH test in keratinocytes
Assay type: cell-based
condition_notes: 200 µM; 48 hours; positive control Triton X-100
measured_metric: Keratinocytes (HaCaT) LDH

INSERT INTO results (query_smiles, measured_metric, result) VALUES
  ('O=C(/C=C/c1ccccc1)NCCCCCO', 'Keratinocytes (HaCaT) LDH', '6.38 percentage of positive control'),
  ('O=C(/C=C/c1ccc(Cl)cc1)NCCCO', 'Keratinocytes (HaCaT) LDH', '17.03 percentage of positive control'),
  ('O=C(/C=C/c1ccc(Cl)cc1)NCCO', 'Keratinocytes (HaCaT) LDH', '6.50 percentage of positive control'),
  ('Cc1ccc(/C=C/C(=O)NCCCCCO)cc1', 'Keratinocytes (HaCaT) LDH', '10.18 percentage of positive control'),
  ('O=C(/C=C/c1ccc(Cl)cc1)NCCCCCO', 'Keratinocytes (HaCaT) LDH', '6.49 percentage of positive control');

====

System: neuroblastoma SH-SY5Y
experiment_notes: Safety, MTT test in SH-SY5Y
Format: cell-based
condition_notes: 200 µM; 48 hours
measured_metric: Neuroblastoma SH-SYSY MTT

INSERT INTO results (compound, result) VALUES
  ('O=C(/C=C/c1ccc(Cl)cc1)NCCO [H-427/21]', '101.30±2.94 % of solvent control'),
  ('Cc1ccc(/C=C/C(=O)NCCCCCO)cc1 [H-415/21]', '100.27±3.50 % of solvent control'),
  ('O=C(/C=C/c1ccc(Cl)cc1)NCCCO [H-330/21]', '99.79±3.97 % of solvent control'),
  ('O=C(/C=C/c1ccc(Cl)cc1)NCCCCCO [Compound A-111]', '100.55±2.31 % of solvent control'),
  ('O=C(/C=C/c1ccccc1)NCCCCCO [Compound A-133]', '100.62±5.99 % of solvent control');

====

Test system: S. typhimurium TA1535
experiment_notes: Ames microplate test, TA1535;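 also: bacteria exposed to compound 90 min at 37 °C, then kept 48 h at 37 °C with indicator medium in 384-well plates, scoring wells that turned yellow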
condition_notes: 2.0 mM, +S9
measured_metric: Increase in the number of yellow wells compared to the reference level

INSERT INTO results (compound, numeric_readout) VALUES
  ('O=C(/C=C/c1ccccc1)NCCCCCCO', 0.94),
  ('O=C(/C=C/c1ccccc1)NCCCCCO', 0.35),
  ('O=C(/C=C/c1ccc(Cl)cc1)NCCCCCO', 0.23),
  ('CCC(O)CNC(=O)/C=C/c1ccc(Cl)cc1 (stereo not shown)', 0.13);

====

Tested on: Chinese hamster ovary cell line (CHO-K1)
experiment_notes: Genotoxicity in the micronucleus test in CHO-K1 cells
Type: cell-based
condition_notes: 100 µM
Reported NB (nuclear buds in 1000 binucleate cells) values follow for various compounds
measured_metric: NB (nuclear buds in 1000 binucleate cells)

INSERT INTO assay_data (compound, experimental_target, numeric_readout) VALUES
  ('O=C(/C=C/c1ccccc1)NCCCCCO', 'Chinese hamster ovary cell line (CHO-K1)', 6.3),
  ('CCC(O)CNC(=O)/C=C/c1ccc(Cl)cc1 (stereo not drawn)', 'Chinese hamster ovary cell line (CHO-K1)', 5.0),
  ('O=C(/C=C/c1ccc(Cl)cc1)NCCCCCO', 'Chinese hamster ovary cell line (CHO-K1)', 2.0),
  ('O=C(/C=C/c1ccccc1)NCCCCCCO', 'Chinese hamster ovary cell line (CHO-K1)', 3.5),
  ('CC(CO)NC(=O)/C=C/c1ccc(Cl)cc1 (stereo not drawn)', 'Chinese hamster ovary cell line (CHO-K1)', 5.5),
  ('Cc1ccc(/C=C/C(=O)NCCCCCO)cc1', 'Chinese hamster ovary cell line (CHO-K1)', 5.0);

====

Test system: Hepatocarcinoma HepG2
experiment_notes: Safety, LDH test in HepG2
Type: cell-based
condition_notes: 150 µM; 48 hours; positive control Triton X-100
measured_metric: Hepatocarcinoma HepG2 LDH

INSERT INTO results (query_smiles, measured_metric, result) VALUES
  ('Cc1ccc(/C=C/C(=O)NCCCCCO)cc1', 'Hepatocarcinoma HepG2 LDH', '7.24 percentage of positive control'),
  ('O=C(/C=C/c1ccc(Cl)cc1)NCCO', 'Hepatocarcinoma HepG2 LDH', '4.45 percentage of positive control'),
  ('O=C(/C=C/c1ccc(Cl)cc1)NCCCO', 'Hepatocarcinoma HepG2 LDH', '4.90 percentage of positive control'),
  ('O=C(/C=C/c1ccccc1)NCCCCCO', 'Hepatocarcinoma HepG2 LDH', '7.07 percentage of positive control'),
  ('O=C(/C=C/c1ccc(Cl)cc1)NCCCCCO', 'Hepatocarcinoma HepG2 LDH', '4.73 percentage of positive control');
